Study target: T1, VEGFR-1-Fc (UniProt P17948 27-338)
T1 construct: domain: first three Ig domains; expressed in Drosophila S2 cells, purified on Protein A sepharose; also called VEGFR-1-Fc fusion protein; not shown: Fc fragment from the Signal-pIgPlus vector
T1 sequence (P17948 27-338): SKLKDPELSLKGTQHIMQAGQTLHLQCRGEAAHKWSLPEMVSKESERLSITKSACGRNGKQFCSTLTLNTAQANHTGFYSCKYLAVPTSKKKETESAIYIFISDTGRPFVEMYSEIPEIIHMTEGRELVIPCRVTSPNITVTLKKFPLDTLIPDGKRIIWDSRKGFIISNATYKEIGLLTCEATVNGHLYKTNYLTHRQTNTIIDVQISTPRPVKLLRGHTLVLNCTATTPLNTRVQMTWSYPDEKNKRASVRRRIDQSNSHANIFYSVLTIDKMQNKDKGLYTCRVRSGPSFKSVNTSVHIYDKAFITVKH
Method: receptor-Fc IP
Readout label: binding result

Binder | Readout label | Test result
34-13 (ligand) GQNHHEVVKSIDNEWRKTQCMPIETLVDIFQEFGVATNTFFKPSCVPLMRCGGCCNDEGLECVPTEESNITMQIMRITVPLSQGPKPVTISFANHTSCRCMSKLD | binding result | no binding
24-12 (ligand) AHYNTEILKSIDNEWRKTQCMPREVCIDVGKEFGVATNTFFKPSCVPLMRCGGCCNSEGLQCMNTSTSYLSKTLFEITVPLSQGPKPVTISFLQHNKCECRPKKD | binding result | no binding
